Tested on: Poly(dA-dU)oligonucleotide
METHOD SUMMARY: Binding affinity to polyA-polyU RNA (unknown origin) assessed as ratio of fluorescence intensity of compound-polynucleotide complex to fluorescence intensity of compound in sodium cacodylate buffer at pH 7 by fluorescence spectroscopy based Scatchard method
Type: nucleic-acid assay
# reported Ratio; entries follow
Answer field: number only, no words.

Using known records, supply Ratio for CC(C)CNc1c(C#N)c2nc3ncccc3n2c2ccccc12
7.1

Quickly give me recorded Ratio for CC(C)CNc1c(C#N)c2nc3cccnc3n2c2ccccc12
2.5

Entry N#Cc1c(N2CCNCC2)c2ccc(N3CCNCC3)cc2n2c1nc1ncccc12 needs its Ratio filled in; supply it.
1.8

Give Ratio for the following compound: CN(C)CCCNc1ccc2cc(C#N)c3nc4cccnc4n3c2c1
0.8

Identify Ratio associated with the compound CN(C)CCCNc1ccc2cc(C#N)c3nc4ncccc4n3c2c1
0.8

Identify measured Ratio corresponding to N#Cc1c(N2CCNCC2)c2ccc(N3CCNCC3)cc2n2c1nc1cccnc12
2

Reference source: ChEMBL document CHEMBL4814006
